Study system: DNA-PK (Homo sapiens (Human), UniProt P78527)
Test: DNA-PK Enzyme-Linked Immunosorbent Assay (phosphorylation of GST-p53 (1-101) peptide)
Format: biochemical
Condition context: ELISA, 20 μM ATP
pIC50: −log10 of the molar value. Where a name gives a salt, the structure may show the parent alone.
Field: pIC50. Provide a value for each of the compounds that follow.

-- ask Look up pIC50: CC(C)NCCOc1ncc(-c2cc3c4c(cnc3cc2F)N(C)C(=O)C42CCC2)cc1NS(=O)(=O)N(C)C [Example 369, hydrochloride]
-- reply 9.00 to 9.30

-- ask What about `CC(C)NCCOc1ncc(-c2cc3c(cc2F)ncc2c3[C@]3(C[C@H](C(C)(C)O)C3)C(=O)N2C)cc1NS(C)(=O)=O` ?
-- reply 7.00 to 9.00

-- ask What about `CO[C@H]1C[C@]2(C1)C(=O)N(C)c1cnc3cc(F)c(-c4cnc(OCCNC(C)C)c(NS(=O)(=O)C5CC5)c4)cc3c12` ?
-- reply 7.00 to 9.00

###

Field: IC50. Provide a value for each of the compounds that follow.
Study system: ATM (Homo sapiens (Human), UniProt Q13315)
Sequence (Q13315 whole entry): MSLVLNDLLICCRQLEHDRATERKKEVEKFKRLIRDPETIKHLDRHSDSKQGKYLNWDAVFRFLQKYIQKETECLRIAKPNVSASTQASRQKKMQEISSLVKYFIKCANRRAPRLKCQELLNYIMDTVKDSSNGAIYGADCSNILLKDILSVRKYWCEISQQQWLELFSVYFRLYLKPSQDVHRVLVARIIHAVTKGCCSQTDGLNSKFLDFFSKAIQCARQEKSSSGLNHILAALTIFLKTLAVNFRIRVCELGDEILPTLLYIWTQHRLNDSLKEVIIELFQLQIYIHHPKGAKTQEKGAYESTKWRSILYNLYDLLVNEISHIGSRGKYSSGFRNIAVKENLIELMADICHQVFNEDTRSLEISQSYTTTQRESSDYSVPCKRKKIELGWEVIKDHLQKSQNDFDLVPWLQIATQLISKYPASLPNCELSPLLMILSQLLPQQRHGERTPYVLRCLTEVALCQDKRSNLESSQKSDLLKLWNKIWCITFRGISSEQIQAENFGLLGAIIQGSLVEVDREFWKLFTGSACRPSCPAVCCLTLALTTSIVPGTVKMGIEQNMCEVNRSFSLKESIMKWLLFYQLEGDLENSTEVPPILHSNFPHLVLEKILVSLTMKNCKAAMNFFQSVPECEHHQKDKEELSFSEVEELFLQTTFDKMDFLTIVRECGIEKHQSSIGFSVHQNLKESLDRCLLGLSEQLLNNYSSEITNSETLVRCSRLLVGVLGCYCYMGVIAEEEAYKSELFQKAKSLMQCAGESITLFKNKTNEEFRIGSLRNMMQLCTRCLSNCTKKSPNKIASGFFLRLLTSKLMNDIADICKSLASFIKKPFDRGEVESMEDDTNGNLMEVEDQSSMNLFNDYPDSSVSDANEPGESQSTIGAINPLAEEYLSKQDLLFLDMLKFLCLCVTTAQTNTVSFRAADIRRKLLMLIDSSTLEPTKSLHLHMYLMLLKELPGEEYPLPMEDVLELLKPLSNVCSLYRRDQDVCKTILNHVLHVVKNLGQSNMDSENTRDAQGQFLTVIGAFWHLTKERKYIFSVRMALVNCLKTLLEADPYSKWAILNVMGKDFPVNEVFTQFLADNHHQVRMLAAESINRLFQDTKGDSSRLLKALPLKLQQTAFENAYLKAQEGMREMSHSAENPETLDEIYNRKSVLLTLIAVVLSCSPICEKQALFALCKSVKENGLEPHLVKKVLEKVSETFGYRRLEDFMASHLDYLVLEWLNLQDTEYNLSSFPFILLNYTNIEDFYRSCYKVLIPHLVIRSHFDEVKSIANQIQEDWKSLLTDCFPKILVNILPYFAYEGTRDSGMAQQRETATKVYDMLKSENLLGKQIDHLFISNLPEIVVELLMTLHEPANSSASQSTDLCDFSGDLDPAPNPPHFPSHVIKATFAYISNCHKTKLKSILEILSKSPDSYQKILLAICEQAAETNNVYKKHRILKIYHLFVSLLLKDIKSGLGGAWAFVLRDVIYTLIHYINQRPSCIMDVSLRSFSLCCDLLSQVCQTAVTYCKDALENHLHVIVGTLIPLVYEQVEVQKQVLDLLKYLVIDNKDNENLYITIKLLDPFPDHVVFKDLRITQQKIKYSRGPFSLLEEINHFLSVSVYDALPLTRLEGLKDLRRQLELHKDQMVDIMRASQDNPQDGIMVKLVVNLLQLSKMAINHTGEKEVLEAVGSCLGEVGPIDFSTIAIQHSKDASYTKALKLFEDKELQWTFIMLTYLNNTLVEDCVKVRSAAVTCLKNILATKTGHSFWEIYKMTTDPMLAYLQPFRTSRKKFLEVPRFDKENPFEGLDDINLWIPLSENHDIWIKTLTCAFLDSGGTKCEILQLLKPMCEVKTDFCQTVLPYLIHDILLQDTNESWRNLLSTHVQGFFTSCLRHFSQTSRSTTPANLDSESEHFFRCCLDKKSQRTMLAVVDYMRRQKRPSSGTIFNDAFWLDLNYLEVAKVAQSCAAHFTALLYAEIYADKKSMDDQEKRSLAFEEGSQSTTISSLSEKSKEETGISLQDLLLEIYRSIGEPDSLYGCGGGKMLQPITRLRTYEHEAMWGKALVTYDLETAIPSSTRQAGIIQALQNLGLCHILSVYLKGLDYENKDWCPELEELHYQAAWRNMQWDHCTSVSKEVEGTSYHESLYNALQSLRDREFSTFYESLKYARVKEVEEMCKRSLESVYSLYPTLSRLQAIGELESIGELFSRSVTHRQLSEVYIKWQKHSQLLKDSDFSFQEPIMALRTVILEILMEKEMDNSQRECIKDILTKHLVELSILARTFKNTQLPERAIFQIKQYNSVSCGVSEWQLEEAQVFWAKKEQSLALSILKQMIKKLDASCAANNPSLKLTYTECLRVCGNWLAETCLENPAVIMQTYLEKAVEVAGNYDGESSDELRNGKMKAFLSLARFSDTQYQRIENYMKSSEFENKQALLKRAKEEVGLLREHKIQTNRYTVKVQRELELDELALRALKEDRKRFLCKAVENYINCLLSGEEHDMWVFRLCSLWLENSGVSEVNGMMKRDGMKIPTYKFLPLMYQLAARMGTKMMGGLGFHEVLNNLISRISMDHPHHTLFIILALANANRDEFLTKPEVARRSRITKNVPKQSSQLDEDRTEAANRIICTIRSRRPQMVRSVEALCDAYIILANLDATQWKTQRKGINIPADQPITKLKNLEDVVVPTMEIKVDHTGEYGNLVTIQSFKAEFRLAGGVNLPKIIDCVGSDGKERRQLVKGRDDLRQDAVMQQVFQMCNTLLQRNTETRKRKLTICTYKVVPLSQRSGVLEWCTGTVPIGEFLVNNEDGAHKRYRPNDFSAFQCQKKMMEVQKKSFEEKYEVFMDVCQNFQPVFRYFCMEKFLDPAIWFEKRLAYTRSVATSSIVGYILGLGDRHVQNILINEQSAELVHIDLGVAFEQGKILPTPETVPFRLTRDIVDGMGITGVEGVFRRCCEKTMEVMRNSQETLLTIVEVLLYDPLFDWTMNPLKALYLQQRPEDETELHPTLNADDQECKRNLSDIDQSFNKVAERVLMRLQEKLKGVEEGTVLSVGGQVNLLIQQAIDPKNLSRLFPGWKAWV
Test: ATM in Cell Western Assay (pKAP1 in etoposide-treated MCF-7 cells)
Type: cell-based
Condition context: pKAP1 in etoposide-treated MCF-7 cells

-- ask Look up IC50: `CC(C)CN1CC2(C1)C(=O)N(C)c1cnc3cc(F)c(-c4cnc(OCCNC(C)C)c(NS(C)(=O)=O)c4)cc3c12`
-- reply 1 to 100 nM

-- ask What about `CC(C)NCCOc1ncc(-c2cc3c(cc2F)ncc2c3[C@]3(C[C@H](N4CCOCC4)C3)C(=O)N2C)cc1NS(C)(=O)=O` ?
-- reply 1 to 100 nM

-- ask What about `CN(C)CCCOc1ncc(-c2ccc3ncc4c(c3c2)C2(CN(C(=O)OC(C)(C)C)C2)C(=O)N4C)cc1NS(C)(=O)=O` ?
-- reply 1 to 100 nM

###

Field: pIC50. Provide a value for each of the compounds that follow.
Study system: ATM (Homo sapiens (Human))
Test: ATM in Cell Western Assay (pKAP1 in etoposide-treated MCF-7 cells)
Type: cell-based
Condition context: pKAP1 in etoposide-treated MCF-7 cells
pIC50: −log10 of the molar value. Where a name gives a salt, the structure may show the parent alone.

-- ask Look up pIC50: `CC(C)NCCOc1ncc(-c2cc3c(cc2F)ncc2c3[C@]3(C[C@H](COC(C)C)C3)C(=O)N2C)cc1NS(=O)(=O)C(C)C`
-- reply 7.00 to 9.00

-- ask What about `CC(C)NCCOc1ncc(-c2cc3c(cc2F)ncc2c3[C@]3(C[C@@H](c4ccc(Cl)cc4)C3)C(=O)N2C)cc1NS(C)(=O)=O` ?
-- reply < 7.00

-- ask What about `CC(=O)N1CCC(N2CC3(C2)C(=O)N(C)c2cnc4cc(F)c(-c5cnc(OCCNC(C)C)c(NS(C)(=O)=O)c5)cc4c23)CC1` ?
-- reply < 7.00

-- ask What about `CC(C)NCCOc1ncc(-c2cc3c(cc2F)ncc2c3[C@]3(C[C@H](c4cccc(Cl)c4)C3)C(=O)N2C)cc1NS(C)(=O)=O` ?
-- reply 7.00 to 9.00

-- ask What about `Cc1ccccc1N1CC2(C1)C(=O)N(C)c1cnc3cc(F)c(-c4cnc(OCCNC(C)C)c(NS(C)(=O)=O)c4)cc3c12` ?
-- reply 7.00 to 9.00

-- ask What about CC(C)NCCOc1ncc(-c2cc3c4c(cnc3cc2F)N(C)C(=O)C42CN(c3ccccc3)C2)cc1NS(C)(=O)=O [Example 519, hydrochloride] ?
-- reply 7.00 to 9.00

-- ask What about `CC(C)NCCOc1ncc(-c2cc3c(cc2F)ncc2c3[C@]3(C[C@H](c4ccc(Cl)cc4)C3)C(=O)N2C)cc1NS(C)(=O)=O` ?
-- reply 7.00 to 9.00

-- ask What about `CCN1C(=O)C2(CCC2)c2c1cnc1ccc(-c3cnc(N4CC(N(C)C)C4)c(NS(=O)(=O)c4ccccc4)c3)cc21` ?
-- reply 7.00 to 9.00

-- ask What about `CC(C)NCCOc1ncc(-c2cc3c4c(cnc3cc2F)N(C)C(=O)C42CN(c3cccc(Cl)c3)C2)cc1NS(C)(=O)=O` ?
-- reply 7.00 to 9.00

-- ask What about `CC(C)NCCOc1ncc(-c2cc3c4c(cnc3cc2F)N(C)C(=O)C42CCC2)cc1NS(=O)(=O)N1CC(F)C1` ?
-- reply 7.00 to 9.00

-- ask What about `CC(C)NCCOc1ncc(-c2cc3c(cc2F)ncc2c3[C@]3(C[C@@H](Nc4ccc(Cl)cc4)C3)C(=O)N2C)cc1NS(C)(=O)=O` ?
-- reply 7.00 to 9.00

-- ask What about CN1C(=O)C2(CCC2)c2c1cnc1cc(F)c(-c3cnc(OCCNCCF)c(NS(C)(=O)=O)c3)cc21 [Example 380, hydrochloride] ?
-- reply 7.00 to 9.00

-- ask What about `CN1C(=O)C2(CCC2)c2c1cnc1cc(F)c(-c3cnc(N4CC(CN5CCOCC5)C4)c(NS(C)(=O)=O)c3)cc21` ?
-- reply < 7.00

###

Study system: UniProtKB P78527
Test: DNA-PK Enzyme-Linked Immunosorbent Assay (phosphorylation of GST-p53 (1-101) peptide)
Type: biochemical
Condition context: ELISA, ATP 20 μM
Where a name gives a salt, the structure may show the parent alone.
Recorded endpoint: IC50

-- ask Look up IC50: CN1CCN(S(=O)(=O)Nc2cc(-c3ccc4ncc5c(c4c3)C3(CCC3)C(=O)N5C)cnc2OCCCN2CCCCC2)CC1 [Example 200]
-- reply < 0.5 nM

-- ask What about CN(C)CCCOc1ncc(-c2ccc3ncc4c(c3c2)C2(CC2)C(=O)N4C)cc1NS(=O)(=O)C1CCC1 [Example 69] ?
-- reply 1 to 100 nM

-- ask What about CN1C(=O)C2(CCC2)c2c1cnc1ccc(-c3cnc(N4CCC(N5CCCCC5)CC4)c(NS(C)(=O)=O)c3)cc21 [Example 228] ?
-- reply < 0.5 nM

-- ask What about CN(C)CCCOc1ncc(-c2ccc3ncc4c(c3c2)C2(CC2)C(=O)N4C)cc1NS(=O)(=O)c1ccn(C)n1 [Example 112] ?
-- reply < 0.5 nM

-- ask What about CCN(C)C1CN(c2ncc(-c3ccc4ncc5c(c4c3)C3(CCC3)C(=O)N5C)cc2NS(C)(=O)=O)C1 [Example 326, hydrochloride] ?
-- reply 0.5 to 1 nM

-- ask What about CNCCCOc1ncc(-c2ccc3ncc4c(c3c2)C2(CCC2)C(=O)N4C)cc1NS(C)(=O)=O [Example 240, formate] ?
-- reply < 0.5 nM

-- ask What about CN1C(=O)C2(CCC2)c2c1cnc1ccc(-c3cnc(OCCNC(C)(C)C)c(NS(C)(=O)=O)c3)cc21 [Example 309] ?
-- reply 0.5 to 1 nM

###

Field: pIC50. Provide a value for each of the compounds that follow.
Study system: UniProtKB Q13315
Test: ATM in Cell Western Assay (pKAP1 in etoposide-treated MCF-7 cells)
Type: cell-based
Condition context: pKAP1 in etoposide-treated MCF-7 cells
pIC50: −log10 of the molar value. Structures can show the parent of a compound that is named as a salt.

-- ask Look up pIC50: CC(C)NCCOc1ncc(-c2cc3c(cc2F)ncc2c3[C@]3(C[C@H](c4ccccn4)C3)C(=O)N2C)cc1NS(C)(=O)=O [Example 434]
-- reply 7.00 to 9.00

-- ask What about CC(C)NCCOc1ncc(-c2cc3c(cc2F)ncc2c3[C@]3(C[C@@H](c4cccc(F)c4)C3)C(=O)N2C)cc1NS(C)(=O)=O [Example 425] ?
-- reply < 7.00

-- ask What about CC(C)NCCOc1ncc(-c2cc3c4c(cnc3cc2F)N(C)C(=O)C42CCC2)cc1NS(=O)(=O)N1CCOCC1 [Example 373, hydrochloride] ?
-- reply 7.00 to 9.00

-- ask What about CCCN1CC2(C1)C(=O)N(C)c1cnc3cc(F)c(-c4cnc(OCCNC(C)C)c(NS(C)(=O)=O)c4)cc3c12 [Example 488] ?
-- reply 7.00 to 9.00

-- ask What about Cc1cccc(N2CC3(C2)C(=O)N(C)c2cnc4cc(F)c(-c5cnc(OCCNC(C)C)c(NS(C)(=O)=O)c5)cc4c23)c1 [Example 527] ?
-- reply 7.00 to 9.00

-- ask What about CNS(=O)(=O)Nc1cc(-c2cc3c4c(cnc3cc2F)N(C)C(=O)C42CCC2)cnc1N1CC(N(C)C)C1 [Example 340] ?
-- reply 7.00 to 9.00

-- ask What about CN(C)CCCOc1ncc(-c2ccc3ncc4c(c3c2)C2(CC(F)(F)C2)C(=O)N4C)cc1NS(C)(=O)=O [Example 554] ?
-- reply 7.00 to 9.00

-- ask What about CC(C)NCCOc1ncc(-c2cc3c4c(cnc3cc2F)N(C)C(=O)C42CN(C[C@@H](O)CO)C2)cc1NS(C)(=O)=O [Example 509] ?
-- reply < 7.00

-- ask What about CC(C)NCCOc1ncc(-c2cc3c4c(cnc3cc2F)N(C)C(=O)C42CN(C(=O)C(C)C)C2)cc1NS(C)(=O)=O [Example 512] ?
-- reply < 7.00

-- ask What about CC(C)NCCOc1ncc(-c2cc3c4c(cnc3cc2F)N(C)C(=O)C42CCC2)cc1NS(=O)(=O)N(C)C [Example 369, hydrochloride] ?
-- reply 7.00 to 9.00

-- ask What about CC(C)NCCOc1ncc(-c2cc3c4c(cnc3cc2F)N(C)C(=O)C42CN(C(C)C)C2)cc1NS(=O)(=O)C(C)C [Example 485] ?
-- reply 7.00 to 9.00

-- ask What about CC(C)NCCOc1ncc(-c2cc3c4c(cnc3cc2F)N(C)C(=O)C42CN(c3ccc4c(c3)OCO4)C2)cc1NS(C)(=O)=O [Example 544] ?
-- reply 7.00 to 9.00

-- ask What about CC(C)NCCOc1ncc(-c2cc3c4c(cnc3cc2F)N(C)C(=O)C42CN(c3ccc(C(F)(F)F)cc3)C2)cc1NS(C)(=O)=O [Example 536, hydrochloride] ?
-- reply 7.00 to 9.00
